# measurementTarget: tubulin polymerization (Tubulin Beta, Tubb) (Homo sapiens, UniProt P07437+P68363)
# Sequence (P07437 whole entry): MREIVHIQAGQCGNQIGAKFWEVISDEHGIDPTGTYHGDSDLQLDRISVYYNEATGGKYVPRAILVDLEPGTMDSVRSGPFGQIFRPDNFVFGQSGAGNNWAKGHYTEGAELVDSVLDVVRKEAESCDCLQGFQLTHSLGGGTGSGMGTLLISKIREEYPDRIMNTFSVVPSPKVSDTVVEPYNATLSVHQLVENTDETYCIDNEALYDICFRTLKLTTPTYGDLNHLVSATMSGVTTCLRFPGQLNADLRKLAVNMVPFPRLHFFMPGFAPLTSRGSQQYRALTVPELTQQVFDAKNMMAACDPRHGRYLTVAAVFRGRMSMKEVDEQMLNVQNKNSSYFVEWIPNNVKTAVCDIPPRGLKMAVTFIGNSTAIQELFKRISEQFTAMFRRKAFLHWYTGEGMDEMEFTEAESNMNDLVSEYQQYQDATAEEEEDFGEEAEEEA
# Sequence (P68363 whole entry): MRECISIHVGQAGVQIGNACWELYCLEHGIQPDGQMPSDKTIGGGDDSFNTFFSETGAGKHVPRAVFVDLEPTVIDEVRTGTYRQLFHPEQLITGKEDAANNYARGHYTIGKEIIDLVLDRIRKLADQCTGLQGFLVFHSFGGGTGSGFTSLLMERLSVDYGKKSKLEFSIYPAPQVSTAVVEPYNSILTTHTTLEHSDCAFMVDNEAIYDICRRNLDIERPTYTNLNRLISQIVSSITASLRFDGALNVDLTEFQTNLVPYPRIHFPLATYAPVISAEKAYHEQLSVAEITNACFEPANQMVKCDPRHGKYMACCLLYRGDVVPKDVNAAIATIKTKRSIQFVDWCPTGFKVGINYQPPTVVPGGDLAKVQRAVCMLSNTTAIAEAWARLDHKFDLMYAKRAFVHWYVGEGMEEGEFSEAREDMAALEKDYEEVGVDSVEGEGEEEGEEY
# procedureDetails: Tubulin polymerization inhibition (ELISA for Tubulin Beta)
# Type: biochemical
valueType: IC50 (nM)

[
  {
    "molecule": "NS(=O)(=O)c1ccc(NC(=O)c2ccccc2NC(=O)c2ccco2)cc1 [Compound 6a]",
    "measurementTarget": "tubulin polymerization (Tubulin Beta, Tubb) (Homo sapiens, UniProt P07437+P68363)",
    "IC50 [nM]": 87.6
  },
  {
    "molecule": "O=C(Nc1ccccc1C(=O)Nc1ccc(S(=O)(=O)Nc2nccs2)cc1)c1ccco1 [Compound 6c]",
    "measurementTarget": "tubulin polymerization (Tubulin Beta, Tubb) (Homo sapiens, UniProt P07437+P68363)",
    "IC50 [nM]": 155
  },
  {
    "molecule": "O=C(Nc1ccccc1C(=O)N/N=C/c1ccc(O)cc1O)c1ccco1 [Compound 9b]",
    "measurementTarget": "tubulin polymerization (Tubulin Beta, Tubb) (Homo sapiens, UniProt P07437+P68363)",
    "IC50 [nM]": 108
  }
]

[1] COc1ccc(CNC(=O)c2ccccc2NC(=O)c2ccco2)cc1 [Compound 4b]
[2] O=C(Nc1ccccc1C(=O)N/N=C/c1ccccc1)c1ccco1 [Compound 9a]
query: Sort 1 and 2 by IC50 descending and give the first. Selection: enter the item's label.
result: 2
